Readings of MFI pH 6.0 for the listed binders
Molecular target: T1, human CD3 on CD3+ Jurkat cells (human, UniProt P07766 23-207)
T1 construct: whole, on cells; Native CD3 complex on cells; the other CD3 chains are not specified for this assay; also called Human CD3+ Jurkat
T1 sequence (P07766 23-207): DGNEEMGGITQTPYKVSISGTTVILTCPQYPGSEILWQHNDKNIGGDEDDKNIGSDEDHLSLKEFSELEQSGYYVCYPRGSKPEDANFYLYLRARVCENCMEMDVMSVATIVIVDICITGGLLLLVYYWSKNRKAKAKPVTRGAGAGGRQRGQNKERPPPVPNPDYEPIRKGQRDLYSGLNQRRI
Test: flow cytometry, 100 nM IgG on CD3+ Jurkat cells, pH 6.0
Protocol: Specificity of the anti-CD3 antibodies for human CD3+ Jurkat cells compared to CHO-S cells at pH 6.0 and 7.4 was determined using a FACS cell binding assay. Briefly, CD3+ human Jurkat cells and CHO-S cells were thawed and washed with cold PBSF buffer, pH 7.4 (PBS+0.1% BSA, pH 7.4). About 200,000 cells were aliquoted per well of a 96-well plate and pelleted by centrifugation (5 minutes at 500×g). […] Binding was analyzed on FACS Canto II. Cell binding assays. […] Binding was analyzed on FACS Canto II.
The answer is to be given in MFI; state only the numeric part.

### Prompt Item SAD10320_P02_H05 (ADI-48652) (antibody, V domains shown, IgG; also called Ab81) VH: QVQLVQSGAEVKKPGASVKVSCKASGFNIKDYYMHWVRQAPGQRLEWMGWIDLENANTIYDAKFQGRVTITRDTSASTAYMELSSLRSEDTAVYYCARDAHHRYFYDVWGQGTLVTVSS VL: DIVMTQSPDSLAVSLGERATINCKSSQSLLNARTGKNYLAWYQQKPGQPPKLLIYWASTRESGVPDRFSGSGSGTDFTLTISSLQAEDVAVYYCKQSHSRRTFGGGTKVEIK has what recorded MFI pH 6.0?
### Response 5750

Consider the additional binder presented here.
### Prompt Item SAD10318_P03_C08 (ADI-48603) (antibody, V domains shown, IgG; also called Ab197) VH: QVQLVQSGAEVKKPGASVKVSCKASGFNIKDYYMHWVRQAPGQRLEWMGWIDLENANTIYDAKFQGRVTITRDTSASTAYMELSSLRSEDTAVYYCARDHYGHYFYDVWGQGTLVTVSS VL: DIVMTQSPDSLAVSLGERATINCKSSQSLLHARTGKNHLAWYQQKPGQPPKLLIYWASTRESGVPDRFSGSGSGTDFTLTISSLQAEDVAVYYCKQSHSHRTFGGGTKVEIK has what recorded MFI pH 6.0?
### Response 177
